System: Vero E6 infected with SARS-CoV-2
Assay: inhibition of SARS-CoV-2 cytopathic effect; higher = more antiviral protection, active = above 15
Conditions: 833.33 nM; 48 h
Counter-ions that a name gives are not always drawn.
Can you tell me inhibition of SARS-CoV-2 cytopathic effect for the items I'm about to list?
Give a bare numeral; the unit % is implied.

inhibition of SARS-CoV-2 cytopathic effect in this record for O=S(=O)(c1cccc2c(O)nccc12)N1CCCNCC1 [hydroxyfasudil] : -2.35

inhibition of SARS-CoV-2 cytopathic effect in this record for Cc1ccnc(NS(=O)(=O)c2ccc(N)cc2)n1 : -0.16

inhibition of SARS-CoV-2 cytopathic effect in this record for COC(=O)C1=C(C)NC(C)=C(C(=O)NCCCN2CCC(c3ccccc3)(c3ccccc3)CC2)C1c1ccc([N+](=O)[O-])cc1 (stereo unspecified) : 0.78

inhibition of SARS-CoV-2 cytopathic effect in this record for CN[C@@H](C)CCC=C(C)C [isometheptene-mucate] : -1.17

inhibition of SARS-CoV-2 cytopathic effect in this record for C[C@H](N)Cc1c[nH]cn1 [alpha-methylhistamine-dihydrobromide-(S)-(+)] : 1.26

inhibition of SARS-CoV-2 cytopathic effect in this record for CC(C)C[C@H](NC(=O)OCc1ccccc1)C(=O)N[C@@H](C[C@@H]1CCNC1=O)C(O)S(=O)(=O)O (stereo partly specified) [GC376 sodium] : -0.83

inhibition of SARS-CoV-2 cytopathic effect in this record for CCn1cc(C(=O)O)c(=O)c2cc3c(cc21)OCO3 : -0.9

inhibition of SARS-CoV-2 cytopathic effect in this record for CCCN(CCC)C(=O)C(CCC(=O)OCCCN1CCN(CCOC(=O)Cc2c(C)n(C(=O)c3ccc(Cl)cc3)c3ccc(OC)cc23)CC1)NC(=O)c1ccccc1 (stereo unspecified) : -4.91

inhibition of SARS-CoV-2 cytopathic effect in this record for O=c1ccc2ccc(O)c(O)c2o1 : 4.54

inhibition of SARS-CoV-2 cytopathic effect in this record for CN=C(N)NCCC[C@H](N)C(=O)O : 1.39

inhibition of SARS-CoV-2 cytopathic effect in this record for N=C1N[C@H]2[C@H](CS[C@H]2CCCCC(=O)O)N1 : -2.01

inhibition of SARS-CoV-2 cytopathic effect in this record for COc1ccc2cc(-c3cc(-c4cc(Cl)cc(Cl)c4)nn3[C@@H](C)c3ccc(C(=O)NCCC(=O)O)cc3)ccc2c1 : 4.66

inhibition of SARS-CoV-2 cytopathic effect in this record for O=C/C=C/c1ccccc1 : 3.28

inhibition of SARS-CoV-2 cytopathic effect in this record for O=c1c(O[C@@H]2O[C@H](CO)[C@H](O)[C@H](O)[C@H]2O)c(-c2ccc(O)c(O)c2)oc2cc(O)cc(O)c12 : -1.62

inhibition of SARS-CoV-2 cytopathic effect in this record for Nc1nnc(Sc2ncc([N+](=O)[O-])s2)s1 : -2.43

inhibition of SARS-CoV-2 cytopathic effect in this record for COCCOCCOc1ccc(C2=N[C@@](C)(C(=O)O)CS2)c(O)c1 : 1.75

inhibition of SARS-CoV-2 cytopathic effect in this record for COc1cc(Nc2nc3ccccc3nc2NS(=O)(=O)c2ccc(NC(=O)c3ccc(C)c(OC)c3)cc2)cc(OC)c1 : -1.67

inhibition of SARS-CoV-2 cytopathic effect in this record for O=C(N[C@H]1CN2CCC1CC2)c1cc2cccc(Cl)c2s1 : -1.74

inhibition of SARS-CoV-2 cytopathic effect in this record for CC(C)n1nnc2cc(C(=O)O)ccc21 : -0.38

inhibition of SARS-CoV-2 cytopathic effect in this record for Nc1nc(=O)c2sc(=O)n([C@@H]3O[C@H](CO)[C@@H](O)[C@H]3O)c2[nH]1 : 1.35

inhibition of SARS-CoV-2 cytopathic effect in this record for C#C[C@]1(O)CC[C@H]2[C@@H]3CCc4cc(OC)ccc4[C@H]3CC[C@@]21C : 0.76

inhibition of SARS-CoV-2 cytopathic effect in this record for COc1cc(NC(C)CCCN)c2ncccc2c1 (stereo unspecified) : 1.27

inhibition of SARS-CoV-2 cytopathic effect in this record for CC(C)(C)NC[C@H](O)COc1nsnc1N1CCOCC1 : 3.77

inhibition of SARS-CoV-2 cytopathic effect in this record for CC(C)(C)NCc1cc(Nc2ccnc3cc(Cl)ccc23)c2c(c1O)CCCC2 [naphthoquine-phosphate] : -0.36

inhibition of SARS-CoV-2 cytopathic effect in this record for OC[C@H]1O[C@@H](Oc2cc3c(O)cc(O)cc3[o+]c2-c2ccc(O)c(O)c2)[C@H](O)[C@@H](O)[C@@H]1O : -2.36

inhibition of SARS-CoV-2 cytopathic effect in this record for COc1cc2c(NC3CCN(C(C)C)CC3)nc(C3CCCCC3)nc2cc1OCCCN1CCCC1 : -2.98

inhibition of SARS-CoV-2 cytopathic effect in this record for O=C(O)c1ccc(N2C(=O)/C(=C/c3ccc(-c4ccc([N+](=O)[O-])cc4)o3)C=C2c2ccccc2)cc1 : -6.51

inhibition of SARS-CoV-2 cytopathic effect in this record for CC(C)SC(=N)N : 0.88

inhibition of SARS-CoV-2 cytopathic effect in this record for C#C[C@]1(O)CC[C@H]2[C@@H]3CCC4=CC(=O)CC[C@@H]4[C@H]3CC[C@@]21C : 1.37

inhibition of SARS-CoV-2 cytopathic effect in this record for OCCCNc1cc(-c2ccnc(Nc3cccc(Cl)c3)n2)ccn1 : -16.6

inhibition of SARS-CoV-2 cytopathic effect in this record for CC1(C)C[C@@H]1C(=O)N/C(=C\CCCCSC[C@H](N)C(=O)O)C(=O)O [Cilastatin Sodium] : -0.19

inhibition of SARS-CoV-2 cytopathic effect in this record for C#C[C@]1(O)C=C[C@H]2[C@@H]3CCC4=CC(=O)CC[C@@H]4[C@H]3CC[C@@]21CC : -1.22

inhibition of SARS-CoV-2 cytopathic effect in this record for Cc1c(F)cccc1NC(=O)Nc1ccc(Cl)c(S(=O)(=O)[C@H]2CCCNC2)c1O : -0.62

inhibition of SARS-CoV-2 cytopathic effect in this record for COc1cc2c(c(OC)c1OC)-c1c(cc3c(c1OC)OCO3)CC(C)C(C)C2 (stereo unspecified) : -1.73

inhibition of SARS-CoV-2 cytopathic effect in this record for CN(C)Cc1ccc(-c2nc3cccc4c3n2CCNC4=O)cc1 : 1.65

inhibition of SARS-CoV-2 cytopathic effect in this record for CC(C)(CCCCCC(O)CCCCCC(C)(C)C(=O)O)C(=O)O : 0.98

Reference source: the supplement of paper PMC13380429
